Test: in vivo
Experimental setup: mouse, 1 mg/kg
Measured metric: AUC(0-inf) (ng·h/mL)
// units = ng·h/mL; emit number, no label

Input: // returns reported AUC(0-inf) for input C[C@@H]1[C@H](O)[C@@H](C)/C=C/C=C/C=C/C=C/C=C/C=C/C=C/[C@H](O[C@@H]2O[C@H](C)[C@@H](O)[C@H](N)[C@@H]2O)C[C@@H]2O[C@](O)(C[C@@H](O)C[C@@H](O)[C@H](O)CC[C@@H](O)C[C@@H](O)CC(=O)O[C@H]1C)C[C@H](O)[C@H]2C(=O)O [Amphotericin B, amphotericin B]
Output: 29300

Input: // returns reported AUC(0-inf) for input C[C@@H]1[C@H](O)[C@@H](C)/C=C/C=C/CC/C=C/C=C/C=C/C=C/[C@H](O[C@@H]2O[C@H](C)[C@@H](O)[C@H](N)[C@@H]2O)C[C@@H]2O[C@](O)(C[C@@H](O)[C@H](O)CC[C@@H](O)C[C@@H](O)C[C@@H](O)CC(=O)O[C@H]1C)C[C@H](O)[C@H]2C(=O)O [Nystatin A1, nystatin A1]
Output: 7150

From: paper PMC6134108
